Could you please report measured IC50 for the items listed next?

stdin: Enter measured IC50, system Histone deacetylase 1 (Homo sapiens), for the compound shown: CCCCc1nc2cc(/C=C/C(=O)NO)ccn2c1CN(CC)CC(C)CCC (centres undefined)
stdout: 60 nM

stdin: Report value: IC50, system: Histone deacetylase 1 (Homo sapiens), compound: `CCCCCCc1nc2cc(/C=C/C(=O)NO)ccn2c1NCCC(=O)N(C)CC#N`
Sequence (Q13547 whole entry): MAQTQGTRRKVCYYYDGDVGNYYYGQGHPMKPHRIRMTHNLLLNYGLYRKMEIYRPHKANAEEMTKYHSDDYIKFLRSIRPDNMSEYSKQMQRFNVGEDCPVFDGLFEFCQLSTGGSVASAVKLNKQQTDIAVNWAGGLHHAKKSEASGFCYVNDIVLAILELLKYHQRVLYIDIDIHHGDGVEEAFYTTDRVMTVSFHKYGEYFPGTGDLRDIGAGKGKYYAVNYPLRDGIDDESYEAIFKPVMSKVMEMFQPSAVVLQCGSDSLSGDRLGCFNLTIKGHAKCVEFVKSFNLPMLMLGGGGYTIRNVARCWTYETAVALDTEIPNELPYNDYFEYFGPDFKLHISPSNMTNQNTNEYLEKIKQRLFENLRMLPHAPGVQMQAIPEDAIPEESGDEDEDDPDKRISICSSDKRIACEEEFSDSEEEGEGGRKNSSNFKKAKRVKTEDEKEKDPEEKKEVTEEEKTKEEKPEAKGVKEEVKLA
stdout: > 10000 nM

stdin: Quote Histone deacetylase 1 (Homo sapiens) IC50 for entry `CC(C)(C)Nc1c(C(=O)O)nc2ccc(/C=C/C(=O)NO)cn12` .
stdout: > 10000 nM

stdin: Retrieve IC50 on Histone deacetylase 1 (Homo sapiens); query `COCCNc1c(CCC(=O)O)nc2ccc(/C=C/C(=O)NO)cn12`
stdout: 320 nM
